Molecular target: CCR2 (Homo sapiens, UniProt P41597)
Construct: Membranes were prepared from THP-1 cells; endogenous in cells; host or cells: THP-1 (human acute monocytic leukaemia cells), membrane preparation
Sequence (P41597 1-360 isoform P41597-2): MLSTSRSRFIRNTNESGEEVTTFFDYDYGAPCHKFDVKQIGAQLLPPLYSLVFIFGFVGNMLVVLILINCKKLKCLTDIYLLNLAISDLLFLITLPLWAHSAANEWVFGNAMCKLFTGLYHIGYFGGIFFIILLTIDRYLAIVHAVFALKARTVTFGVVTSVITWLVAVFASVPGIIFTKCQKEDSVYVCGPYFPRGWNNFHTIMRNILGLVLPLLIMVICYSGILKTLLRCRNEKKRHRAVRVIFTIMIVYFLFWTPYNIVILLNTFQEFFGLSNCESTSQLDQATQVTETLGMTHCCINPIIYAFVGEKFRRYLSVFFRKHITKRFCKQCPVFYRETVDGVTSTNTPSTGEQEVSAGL
Assay: CCR2 receptor membrane binding assay ([125I]MCP-1, THP-1 membranes, SPA beads)
Details: THP-1 cell membranes; [125I]MCP-1 displacement; bound radioactivity after 8 h; read-out: hKi
Value kind: Ki (nM)

Recorded Ki, per entry:
{"columns": ["Compound", "Meas value"],
 "data": [
  ["Cc1c(NC[C@H]2CCC[C@@H](c3ccc(C(F)(F)F)cc3)O2)cnnc1C(=O)N1CCC(NC2CCOCC2F)CC1 (stereo partly shown)", 9],
  ["Cc1ccc([C@@H]2CCC[C@H](CNc3cnnc(C(=O)N4CCC(NC5CCOCC5F)CC4)c3C)O2)cc1 (stereo partly shown)", 35],
  ["CO[C@H]1COCC[C@H]1NC1CCN(C(=O)c2nncc(NC[C@H]3CCC[C@@H](c4ccc(C(F)(F)F)cc4)O3)c2C)CC1", 6],
  ["Cc1c(Nc2ccc(Cl)c(Cl)c2)cnnc1C(=O)N1CCC(NC2CCOCC2F)CC1 (stereo not shown)", 41],
  ["CO[C@@H]1COCC[C@@H]1NC1CCN(C(=O)c2nncc(NC[C@H]3CCC[C@@H](c4ccccc4)C3)c2C)CC1", 3],
  ["COc1nnc(C(=O)N2CCC(NC3CCOCC3OC)CC2)c(C)c1NCc1ccc(C(C)(C)C)cc1 (stereo not shown)", 40],
  ["COc1nnc(C(=O)N2CCC(N[C@H]3CCOC[C@H]3OC)CC2)c(C)c1NC[C@H]1CCC[C@@H](c2ccccc2)C1", 1],
  ["COc1nnc(C(=O)N2CCC(N3CCC(N(C)S(C)(=O)=O)CC3)CC2)c(C)c1NCc1ccc(C(C)(C)C)cc1", 60]
]}

I. COc1nnc(C(=O)N2CCC(N[C@H]3CCOC[C@H]3OC)CC2)c(C)c1N1CCc2ccc(C(F)(F)F)cc2C1
II. COc1nnc(C(=O)N2CCC(N[C@@H]3CCOC[C@@H]3OC)CC2)c(C)c1NC[C@H]1CCC[C@@H](c2ccc(C(F)(F)F)cc2)O1
III. Cc1c(N2CCc3ccc(C(F)(F)F)cc3C2)cnnc1C(=O)N1CCC(NC2CCOCC2F)CC1 (stereo not shown)
IV. CO[C@@H]1COCC[C@@H]1NC1CCN(C(=O)c2nncc(NC[C@H]3CCC[C@@H](c4ccc(OC(F)(F)F)cc4)O3)c2C)CC1
Rank by Ki (largest to smallest). Reply with the item labels sorted in the order that was asked for.
III, I, II, IV
